Test: Pharmacokinetic study in rats (intragastric administration and intravenous injection, LC/MS/MS)
Type: in vivo, SD rats
Details: both sexes, SD, plasma, po; rat, intragastric administration, 2 mg/kg; read-out: Apparent volume of distribution Vz/F
MEASUREMENT_LABEL: Vd/F (L/kg)

[I] O=C(O)[C@H]1O[C@@H](N(c2ccc3c(c2)OC(F)(F)O3)c2ccc3cccc(Cl)c3n2)[C@H](O)[C@@H](O)[C@@H]1O
[II] O=C(O)[C@H]1O[C@@H](N(c2ccc(OC(F)(F)F)cc2)c2ccc3cccc(Cl)c3n2)[C@H](O)[C@@H](O)[C@@H]1O [A, reference compound]
Asked: // returns I or II , whichever has the lower Vd/F Answer format: the label of the selected item.
Given back: I
(I: 6.18 L/kg, II: 21.4 L/kg)
